Attribution: patent US8674095B2

Entries with reported IC50 on UniProt:Q13177
Sequence (Q13177 whole entry): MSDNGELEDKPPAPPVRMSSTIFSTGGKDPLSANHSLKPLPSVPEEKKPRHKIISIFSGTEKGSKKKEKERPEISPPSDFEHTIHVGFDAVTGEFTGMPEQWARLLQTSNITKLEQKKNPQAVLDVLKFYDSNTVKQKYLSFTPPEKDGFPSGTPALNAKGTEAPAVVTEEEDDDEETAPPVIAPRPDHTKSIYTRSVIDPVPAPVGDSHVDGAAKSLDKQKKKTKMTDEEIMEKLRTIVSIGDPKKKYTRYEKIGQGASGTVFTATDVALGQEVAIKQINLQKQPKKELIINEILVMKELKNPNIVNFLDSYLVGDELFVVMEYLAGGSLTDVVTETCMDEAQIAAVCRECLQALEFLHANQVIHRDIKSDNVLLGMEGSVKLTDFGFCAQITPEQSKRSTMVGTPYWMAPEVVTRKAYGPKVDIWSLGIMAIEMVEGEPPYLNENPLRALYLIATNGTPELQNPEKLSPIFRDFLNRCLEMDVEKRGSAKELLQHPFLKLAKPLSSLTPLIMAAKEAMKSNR
Reported Metric: IC50

1. CN1CCN(c2ccc(Nc3ncc4ccc(=O)n(Cc5ccccc5-c5cc(C(F)(F)F)nn5C)c4n3)cc2)CC1 [Compound 76] ... 1000 to 10000 nM
2. CN1CCN(c2ccc(Nc3ncc4ccc(=O)n([C@H]5CCCc6ccccc65)c4n3)cc2)CC1 [Compound 12] ... 1000 to 10000 nM
3. CCCNc1ccc(-c2ccnc(Nc3ccc(N4CCN(C)CC4)cc3)n2)cn1 [Compound 105] ... 1000 to 10000 nM
4. CN1CCN(c2ccc(Nc3ncc4ccc(=O)n(Cc5ccccc5Br)c4n3)cc2)CC1 [Compound 27] ... < 1000 nM
5. Cc1c(F)cccc1Cn1c(=O)ccc2cnc(Nc3ccc(N4CCN(C)CC4)cc3)nc21 [Compound 49] ... 1000 to 10000 nM
6. CN1CCN(c2ccc(Nc3nccc(-c4ccc(NCCN5CCOCC5)nc4)n3)cc2)CC1 [Compound 99] ... > 10000 nM
7. CN(C)CCOc1ccc(Nc2nccc(-c3ccc(NCCN)nc3)n2)cc1 [Compound 96] ... 1000 to 10000 nM
8. CN1CCN(c2ccc(Nc3nccc(-c4ccc(NCCN)nc4)n3)cc2)CC1.Cl [Compound 94, hydrochloride] ... 1000 to 10000 nM
9. CC(c1ccccc1C(F)(F)F)n1c(=O)ccc2cnc(Nc3ccc(N4CCN(C)CC4)cc3)nc21 (stereo not shown) [Compound 70] ... > 10000 nM
10. Cc1noc(-c2ccccc2Cn2c(=O)ccc3cnc(Nc4ccc(N5CCNCC5)c(F)c4)nc32)n1 [Compound 80] ... 1000 to 10000 nM
11. CN(C)CCOc1ccc(-c2ccnc(Nc3ccc(N4CCN(C)CC4)cc3)n2)cn1 [Compound 102] ... > 10000 nM
12. COc1cc(Nc2nccc(-c3ccc(NCCN)nc3)n2)cc(OC)c1OC [Compound 95] ... 1000 to 10000 nM
13. CN1CCN(c2ccc(Nc3ncc4ccc(=O)n(Cc5c(F)cccc5Br)c4n3)cc2)CC1 [Compound 79] ... < 1000 nM
14. CN1CCN(c2ccc(Nc3ncc4ccc(=O)n(Cc5ccccc5-c5cccs5)c4n3)cc2)CC1 [Compound 77] ... < 1000 nM
15. CN1CCN(c2ccc(Nc3nccc(-c4ccc(N(C)CCN)nc4)n3)cc2)CC1 [Compound 110] ... 1000 to 10000 nM
16. CC(C)Oc1ccccc1Cn1c(=O)ccc2cnc(Nc3ccc(N4CCN(C)CC4)cc3)nc21 [Compound 69] ... < 1000 nM
